FYI, the data here is from ChEMBL document CHEMBL4765457.

- Test system: Human immunodeficiency virus 1
- TEST_NAME: Antiviral activity against HIV1 harboring RT K103N mutant infected in human MT4 cells assessed as inhibition of virus-induced cytopathic effect incubated for 5 days by MTT assay
- Type: functional, organism-based
- CONDITION_DETAILS: Human immunodeficiency virus 1, MT4, 120 h
Exercise: state measured EC50 for each of the molecules provided.
Put your answer as a value accompanied by its unit after it.

In the examples that follow, each entry is paired with its recorded EC50.
> print(dat)
                                   molecule  test.result
1  Cc1cc(C#N)cc(C)c1Oc1nc(NC2CCN(CC(=O)N3CCOCC3)CC2)nc2sccc12      1.62 µM
2  Cc1cc(C#N)cc(C)c1Oc1nc(NC2CCN(CC(=O)N3CCOCC3)CC2)nc2c1CSC2      3.73 µM
3  COc1cc2nc(NC3CCN(CC(=O)N4CCOCC4)CC3)nc(Oc3c(C)cc(C#N)cc3C)c2cc1OC      24.8 µM
4  Nc1ccn([C@@H]2CS[C@H](CO)O2)c(=O)n1 [LAMIVUDINE]      3.75 µM

Turning now to a further molecule:
Enquiry: # lookup: EC50 of Cc1cc(C#N)cc(C)c1Oc1nc(NC2CCN(CCN3CCOCC3)CC2)nc2c1CSC2
Return: 1.96 µM

----------
- TEST_NAME: Cytotoxicity against human MT4 cells assessed as reduction in cell viability incubated for 5 days by MTT assay
- Type: cell-based
- CONDITION_DETAILS: time 5 day
MEASUREMENT_NAME: CC50 at 120 h (µM)
One number for each entry, in µM.

> print(dat)
                         chemical.structure  measurement.name  test.result
1  Cc1cc(C#N)cc(C)c1Oc1nc(NC2CCN(CCN3CCOCC3)CC2)nc2ccoc12     CC50 at 120 h          138
2  Cc1cc(C#N)cc(C)c1Oc1nc(NC2CCN(CC(=O)N3CCOCC3)CC2)nc2cc(F)ccc12     CC50 at 120 h         41.1
3  COc1cc2nc(NC3CCN(CCN4CCOCC4)CC3)nc(Oc3c(C)cc(C#N)cc3C)c2cc1OC     CC50 at 120 h          121
4  Cc1cc(C#N)cc(C)c1Oc1nc(NC2CCN(CCN3CCOCC3)CC2)nc2c1CCC2     CC50 at 120 h         49.1

Read the next record carefully.
Enquiry: Endpoint output: CC50 at 120 h of Cc1cc(C#N)cc(C)c1Oc1nc(NC2CCN(CCN3CCOCC3)CC2)nc2ccsc12 . Value?
Return: 36.8

----------
- TEST_NAME: Inhibition of HIV1 reverse transcriptase assessed as reduction in biotin-dUTP incorporation into template preincubated for 1 hr followed by template/primer and dNTP addition and measured after 1 hr by ELISA
- Design: species or system Human immunodeficiency virus 1
So I've got a bunch of compounds here, and I need their log10(IC50) values.
Log scale reminder: IC50 in nM, then log10 taken.

Field: log10(IC50). Fill in for each record below.
1. Cc1cc(C#N)cc(C)c1Oc1nc(NC2CCN(CC(=O)N3CCOCC3)CC2)nc2c1SCC2
2. Cc1cc(C#N)cc(C)c1Oc1nc(NC2CCN(CCN3CCOCC3)CC2)nc2sccc12
3. Cc1cc(C#N)cc(C)c1Oc1nc(Nc2ccc(C#N)cc2)nc(N)c1Br
4. Cc1cc(C#N)cc(C)c1Oc1nc(NC2CCN(CCN3CCOCC3)CC2)nc2ccsc12
5. Cc1cc(C#N)cc(C)c1Oc1nc(NC2CCN(CC(=O)N3CCOCC3)CC2)nc2sccc12

Return:
3.53
3.37
1.77
3.40
3.17

----------
Give measured Ratio EC50 for each item. Keep answers brief.
- TEST_NAME: Resistance index, ratio of EC50 for antiviral activity against HIV1 expressing RT E138K mutant infected in human MT4 cells to EC50 for antiviral activity against HIV1 3B infected in human MT4 cells
- Assay type: functional
Numbers only.

Sample records with Ratio EC50:
> print(dat)
                         chemical.structure  test.result
1  Cc1cc(C#N)cc(C)c1Oc1nc(Nc2ccc(C#N)cc2)nc(N)c1Br          2.6
2       Nc1ccn([C@@H]2CS[C@H](CO)O2)c(=O)n1          1.3
3  Cc1cc(C#N)cc(C)c1Oc1nc(NC2CCN(CCN3CCOCC3)CC2)nc2c1CSC2          6.8
4  Cc1cc(C#N)cc(C)c1Oc1nc(NC2CCN(CC(=O)N3CCOCC3)CC2)nc2c1SCC2         22.6
5  Cc1cc(C#N)cc(C)c1Oc1nc(NC2CCN(CC(=O)N3CCOCC3)CC2)nc2scnc12            5

# ---- query compound ----
Enquiry: Field request: Ratio EC50 | item: Cc1cc(C#N)cc(C)c1Oc1nc(NC2CCN(CC(=O)N3CCOCC3)CC2)nc2c1CCC2
Return: 10.6

----------
Please respond with reported EC50 for every item in the list.
- Test system: Human immunodeficiency virus 1
- TEST_NAME: Antiviral activity against HIV1 harboring RT K103N mutant infected in human MT4 cells assessed as inhibition of virus-induced cytopathic effect incubated for 5 days by MTT assay
- Type: functional, organism-based
- CONDITION_DETAILS: Human immunodeficiency virus 1, MT4, 120 h
Answers are plain numbers, in nM.

> print(dat)
                         chemical.structure  measurement.name  quantity.unit  test.result
1  Cc1cc(C#N)cc(C)c1Oc1nc(NC2CCN(CC(=O)N3CCOCC3)CC2)nc2c1SCC2              EC50             nM         1280
2  Cc1cc(C#N)cc(C)c1Oc1nc(NC2CCN(CCN3CCOCC3)CC2)nc2sccc12              EC50             nM          610
3           Cc1ccnc2c1NC(=O)c1cccnc1N2C1CC1              EC50             nM         5100
4  Cc1cc(C#N)cc(C)c1Oc1nc(NC2CCN(CC(=O)N3CCOCC3)CC2)nc2c1CCC2              EC50             nM         2540

Kindly review the next compound as well.
Enquiry: // returns reported EC50 for input Cc1cc(C#N)cc(C)c1Oc1nc(NC2CCN(CC(=O)N3CCOCC3)CC2)nc2ccsc12
Return: 1380

----------
- TEST_NAME: Resistance index, ratio of EC50 for antiviral activity against HIV1 expressing RT F227L/V106A mutant infected in human MT4 cells to EC50 for antiviral activity against HIV1 3B infected in human MT4 cells
- Type: functional
Please provide measured Ratio EC50 for the entries that follow.

> print(dat)
                         chemical.structure  test.result
1  Cc1cc(C#N)cc(C)c1Oc1nc(NC2CCN(Cc3ccc(S(N)(=O)=O)cc3)CC2)nc2ccsc12            3

I would be grateful if you could provide Ratio EC50 for each of the following entries.
1. Cc1cc(C#N)cc(C)c1Oc1nc(NC2CCN(CCN3CCOCC3)CC2)nc2cc(F)ccc12
2. Cc1cc(C#N)cc(C)c1Oc1nc(NC2CCN(CC(=O)N3CCOCC3)CC2)nc2scnc12
3. Cc1cn([C@H]2C[C@H](N=[N+]=[N-])[C@@H](CO)O2)c(=O)[nH]c1=O
4. Nc1ccn([C@@H]2CS[C@H](CO)O2)c(=O)n1
5. Cc1cc(C#N)cc(C)c1Oc1nc(NC2CCN(CCN3CCOCC3)CC2)nc2c1CSC2

Return:
1. 12.1
2. 256.1
3. 0.5
4. 0.6
5. 68.4

Hi! Can you tell me Ratio EC50 for each of these compounds?
1. Cc1cc(C#N)cc(C)c1Oc1nc(NC2CCN(CCN3CCOCC3)CC2)nc2ccsc12
2. Cc1cc(C#N)cc(C)c1Oc1nc(NC2CCN(CC(=O)N3CCOCC3)CC2)nc2c1SCC2

Return:
1: 81.9; 2: >662.9

Could I get Ratio EC50 for every one of these entries?
1. Cc1cc(C#N)cc(C)c1Oc1nc(NC2CCN(CCN3CCOCC3)CC2)nc2sccc12
2. Cc1cc(C#N)cc(C)c1Oc1nc(NC2CCN(CC(=O)N3CCOCC3)CC2)nc2sccc12

Return:
1: 285.5; 2: 168

Report Ratio EC50 for every entry below.
1. COc1cc2nc(NC3CCN(CC(=O)N4CCOCC4)CC3)nc(Oc3c(C)cc(C#N)cc3C)c2cc1OC
2. Cc1cc(C#N)cc(C)c1Oc1nc(Nc2ccc(C#N)cc2)nc(N)c1Br
3. Cc1cc(C#N)cc(C)c1Oc1nc(NC2CCN(CC(=O)N3CCOCC3)CC2)nc2c1CSC2
4. Cc1cc(C#N)cc(C)c1Oc1nc(NC2CCN(CC(=O)N3CCOCC3)CC2)nc2c1CCC2

Return:
1: 0.4; 2: 6.3; 3: 267.3; 4: 256
